# Test system: methicillin sensitive S. aureus ATCC 25923 (MSSA)
# test_method_notes: MIC assay, broth microdilution, MSSA
# Assay type: cell-based
# measurement_setup: Staphylococcus aureus, 24 h
# Procedure: (3) methicillin sensitive S. aureus ATCC 25923 (MSSA). This strain was obtained from ATCC and was used as a control. The strains were processed according to procedures recommended by ATCC, or procedures that are routinely used. […] The MIC value of oxacillin was determined using the broth microdilution procedure recommended by the National Committee of Clinical Laboratory Standards (NCCLS, 2000). […] The lowest dose at which no visible growth is observed was determined to be the MIC value. […]
Hi there, I'd appreciate the recorded MIC for every entry that follows.
A number alone suffices; assume µg/mL.

Endpoint output: MIC of COC(=O)c1cc(B(O)O)cc([N+](=O)[O-])c1 [Compound F1202] . Value? 128

Give its MIC value. Item: O=C(OCc1ccccc1)c1cc(B(O)O)cc([N+](=O)[O-])c1 [Compound F1201] 32

Give its MIC value. Item: O=C(Oc1ccccc1[N+](=O)[O-])c1cc(B(O)O)cc([N+](=O)[O-])c1 [Compound F1204] 512
